Target Entity: human S1PR1 receptor (Homo sapiens, UniProt P21453)
Sequence (P21453 whole entry): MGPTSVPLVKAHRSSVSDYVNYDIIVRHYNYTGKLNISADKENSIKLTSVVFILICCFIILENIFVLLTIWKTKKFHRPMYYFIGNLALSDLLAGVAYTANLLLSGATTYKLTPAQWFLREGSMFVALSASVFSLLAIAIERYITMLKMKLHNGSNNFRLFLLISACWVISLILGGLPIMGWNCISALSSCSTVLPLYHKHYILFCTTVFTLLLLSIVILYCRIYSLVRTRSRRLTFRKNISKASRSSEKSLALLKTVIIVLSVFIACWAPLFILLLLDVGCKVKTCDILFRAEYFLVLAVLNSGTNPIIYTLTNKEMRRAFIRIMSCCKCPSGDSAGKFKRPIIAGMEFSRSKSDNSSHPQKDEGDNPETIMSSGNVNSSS
Test Protocol: Method 1: intracellular Ca2+ release (FLIPR, Calcium 5) in recombinant CHO-K1 cells
Experimental Context: (1): determined with method 1; read-out: S1P1 EC50
Method: Agonistic activity was measured using two different methods, described below. Method 1. Intracellular Ca^2+ Release Agonist potency and intrinsic activity was assessed by measurement of intracellular Ca^2+ release. […]
pEC50: −log10 of the molar value.
Attribute Measured: pEC50

Some molecules with known pEC50 results, for comparison:
>  <Molecule>
Cc1cc(-c2ccc3c(n2)CCN(C2CC(C(=O)O)C2)C3)ccc1OCc1ccccc1 (centres unmarked)

>  <pEC50>
< 6.00

$$$$
>  <Molecule>
O=C(O)CCN1CCc2nc(-c3ccc(OCc4ccc(C(F)F)cc4)cc3)ncc2C1

>  <pEC50>
< 6.00

$$$$
>  <Molecule>
CCc1cccc(Cl)c1COc1ncc2c(n1)CCN(CCC(=O)O)C2

>  <pEC50>
< 6.00

$$$$
>  <Molecule>
O=C(O)CCN1CCc2nc(-c3ccc(OCc4ccc(OC(F)(F)F)cc4)cc3)ncc2C1

>  <pEC50>
< 6.00

$$$$
>  <Molecule>
Cc1cccc(C)c1COc1ccc(-c2ncc3c(n2)CCN(CC(C)CC(=O)O)C3)c(F)c1 (centres unmarked)

>  <pEC50>
< 6.00

$$$$

IN: Look up and report measured pEC50 (human S1PR1 receptor (Homo sapiens, UniProt P21453)) for the following molecule: O=C(O)CCN1CCc2nc(-c3ccc(OCc4ccc(Cl)cc4)cc3)cnc2C1
OUT: < 6.00

IN: Look up and report measured pEC50 (human S1PR1 receptor (Homo sapiens, UniProt P21453)) for the following molecule: CC(CN1CCc2nc(-c3ccc(OCc4cc(Cl)cc(Cl)c4)cc3)ncc2C1)C(=O)O (single isomer, unassigned) [Compound 19]
OUT: < 6.00

IN: Look up and report measured pEC50 (human S1PR1 receptor (Homo sapiens, UniProt P21453)) for the following molecule: CC(CC(=O)O)CN1CCc2nc(-c3ccc(C(F)(F)Cc4ccc(Cl)cc4F)cc3)ncc2C1 (centres unmarked)
OUT: < 6.00

* * *

Target Entity: human S1PR5 receptor (Homo sapiens)
Construct: host or cells: CHO-K1
Sequence (Q9H228 whole entry): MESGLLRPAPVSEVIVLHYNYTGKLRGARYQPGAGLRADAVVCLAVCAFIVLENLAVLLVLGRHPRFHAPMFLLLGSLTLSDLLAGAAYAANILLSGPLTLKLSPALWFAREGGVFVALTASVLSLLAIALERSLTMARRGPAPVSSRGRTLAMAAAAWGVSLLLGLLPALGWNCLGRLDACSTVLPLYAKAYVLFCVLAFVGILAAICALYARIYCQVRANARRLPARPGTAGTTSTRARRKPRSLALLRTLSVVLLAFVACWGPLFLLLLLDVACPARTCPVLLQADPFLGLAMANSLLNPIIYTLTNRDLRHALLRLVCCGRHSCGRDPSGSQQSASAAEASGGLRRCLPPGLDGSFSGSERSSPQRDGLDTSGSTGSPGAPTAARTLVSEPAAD
Test Protocol: Method 1: intracellular Ca2+ release (FLIPR, Calcium 5) in recombinant CHO-K1 cells
Assay type: cell-based
Experimental Context: agonist potency, determined with method 1 (symbols A-D); read-out: S1P5 EC50 range
// EC50 lookup, one value per entry

Some compounds with known EC50 results, for comparison:
>  <Compound>
Cc1ccc(COc2ccc(-c3ncc4c(n3)CCN(CC(C)CC(=O)O)C4)c(F)c2)cc1C(F)(F)F (centres unmarked)

>  <EC50>
10 to 100 nM

$$$$
>  <Compound>
CC(CN1CCc2nc(-c3ccc(OCc4ccc(F)cc4)c(Cl)c3)ccc2C1)C(=O)O (centres unmarked)

>  <EC50>
10 to 100 nM

$$$$
>  <Compound>
C[C@H](CC(=O)O)CN1CCc2nc(-c3ccc(CCc4ccc(Cl)cc4)cc3)ncc2C1

>  <EC50>
< 10 nM

$$$$
>  <Compound>
O=C(O)CCN1CCc2nc(-c3ccc(OCc4cccc(F)c4)cc3)ccc2C1

>  <EC50>
< 10 nM

$$$$
>  <Compound>
O=C(O)CCN1CCc2nc(-c3ccc(OCc4cccc(Cl)c4)cc3)cnc2C1

>  <EC50>
< 10 nM

$$$$
>  <Compound>
Cc1cccc(C)c1COc1ccc(-c2ncc3c(n2)CCN(CC(C)CC(=O)O)C3)c(F)c1 (centres unmarked)

>  <EC50>
10 to 100 nM

$$$$

IN: Answer with reported EC50 of O=C(O)CCN1CCc2nc(-c3ccc(OCc4cccc(F)c4)cc3)c(F)cc2C1
OUT: < 10 nM

IN: Answer with reported EC50 of O=C(O)C1CC(N2CCc3nc(C#Cc4ccccc4Cl)ncc3C2)C1 (centres unmarked)
OUT: 1000 to 10000 nM

* * *

// pEC50 lookup, one value per entry
Target Entity: human S1PR1 receptor (Homo sapiens)
Test Protocol: Method 1: intracellular Ca2+ release (FLIPR, Calcium 5) in recombinant CHO-K1 cells
Experimental Context: (1): determined with method 1; read-out: S1P1 EC50
pEC50: −log10 of the molar value.

>  <Compound>
O=C(O)CN1CCc2nc(Cc3c(F)cccc3F)ncc2C1

>  <pEC50>
< 6.00

$$$$
>  <Compound>
O=C(O)CCN1CCc2nc(-c3ccc(OCc4cccc(F)c4)cc3)ncc2C1

>  <pEC50>
< 6.00

$$$$
>  <Compound>
CCc1cccc(Cl)c1COc1nc2c(cc1F)CN(C1CC(C(=O)O)C1)CC2 (centres unmarked)

>  <pEC50>
< 6.00

$$$$
>  <Compound>
CC(C)Oc1ccc(-c2ncc3c(n2)CCN(CCCC(=O)O)C3)cc1

>  <pEC50>
< 6.00

$$$$

Please look at the following compound next.
IN: Answer with reported pEC50 of CC(CN1CCc2nc(-c3ccc(OCc4ccccc4)cc3F)ccc2C1)C(=O)O (centres unmarked)
OUT: > 6.00

* * *

Target Entity: human S1PR3 receptor (Homo sapiens)
Construct: host or cells: CHO-K1
Sequence (Q99500 whole entry): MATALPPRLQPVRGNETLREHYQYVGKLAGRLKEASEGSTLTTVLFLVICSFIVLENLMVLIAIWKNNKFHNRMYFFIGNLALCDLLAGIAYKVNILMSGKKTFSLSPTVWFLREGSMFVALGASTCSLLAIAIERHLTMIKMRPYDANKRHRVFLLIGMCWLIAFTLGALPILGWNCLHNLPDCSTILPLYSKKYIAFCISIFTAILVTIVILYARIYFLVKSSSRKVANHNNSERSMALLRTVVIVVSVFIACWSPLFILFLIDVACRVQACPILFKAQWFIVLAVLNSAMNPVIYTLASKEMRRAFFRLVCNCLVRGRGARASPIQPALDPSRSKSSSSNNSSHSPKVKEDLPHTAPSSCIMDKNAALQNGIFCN
Test Protocol: Method 1: intracellular Ca2+ release (FLIPR, Calcium 5) in recombinant CHO-K1 cells
Format: cell-based
Experimental Context: (1): determined with method 1; read-out: S1P3 EC50
Attribute Measured: EC50

Some compounds with known EC50 results, for comparison:
>  <Compound>
O=C(O)C1(CN2CCc3nc(-c4ccc(Cc5ccccc5)cc4)ncc3C2)CC1

>  <EC50>
> 1000 nM

$$$$
>  <Compound>
O=C(O)CCCN1CCc2nc(C#Cc3cc(F)ccc3F)ncc2C1

>  <EC50>
> 1000 nM

$$$$
>  <Compound>
O=C(O)CCN1CCc2nc(-c3ccc(OCc4ccc(C(F)F)cc4)cc3)ccc2C1

>  <EC50>
> 1000 nM

$$$$
>  <Compound>
O=C(O)CCN1CCc2nc(-c3ccc(OCc4cccc(C(F)F)c4)cc3)ncc2C1

>  <EC50>
> 1000 nM

$$$$
>  <Compound>
CSc1ccc(COc2ccc(-c3ncc4c(n3)CCN(CC(C)CC(=O)O)C4)cc2)cc1 (centres unmarked)

>  <EC50>
> 1000 nM

$$$$

IN: Answer with reported EC50 of CC(CN1CCc2nc(-c3ccc(OCc4ccc(Cl)c(Cl)c4)cc3)ncc2C1)C(=O)O (centres unmarked)
OUT: > 1000 nM

IN: Answer with reported EC50 of CCOc1ccc(C#Cc2ccc3c(n2)CCN(C2CC(C(=O)O)C2)C3)cc1 (centres unmarked)
OUT: > 1000 nM

IN: Answer with reported EC50 of O=C(O)C1CC(N2CCc3nc(C#Cc4ccc(Cl)cc4)ncc3C2)C1 (centres unmarked)
OUT: > 1000 nM

* * *

Target Entity: human S1PR5 receptor (Homo sapiens)
Construct: host or cells: CHO-K1
Test Protocol: Method 1: intracellular Ca2+ release (FLIPR, Calcium 5) in recombinant CHO-K1 cells
Type: cell-based
Experimental Context: agonist potency, determined with method 1 (symbols A-D); read-out: S1P5 EC50 range
Attribute Measured: EC50

>  <Compound>
Cc1cc(-c2cc3c(cn2)CN(CCC(=O)O)CC3)ccc1OCc1ccc(C(F)(F)F)cc1

>  <Endpoint Result>
< 10 nM

$$$$
>  <Compound>
O=C(O)CCN1CCc2nc(-c3ccc(OCc4ccc(OC(F)(F)F)cc4)cc3)ccc2C1

>  <Endpoint Result>
100 to 1000 nM

$$$$
>  <Compound>
CC(CC(=O)O)CN1CCc2nc(-c3ccc(OCc4cccc(C(F)(F)F)c4)cc3)ncc2C1 (stereo not drawn)

>  <Endpoint Result>
< 10 nM

$$$$
>  <Compound>
O=C(O)CCN1CCc2cc(-c3ccc(OCc4ccc(Cl)cc4)cc3)ncc2C1

>  <Endpoint Result>
< 10 nM

$$$$
>  <Compound>
Cc1cc(-c2ncc3c(n2)CCN(CC(C)CC(=O)O)C3)ccc1OCc1ccccc1Cl (stereo not drawn)

>  <Endpoint Result>
10 to 100 nM

$$$$

IN: Answer with reported EC50 of CC(C)Oc1ccc(-c2ncc3c(n2)CCN(CCC(=O)O)C3)cc1Cl
OUT: 1000 to 10000 nM

IN: Answer with reported EC50 of CC(CC(=O)O)CN1CCc2nc(-c3ccc(OCc4cccc(F)c4)cc3)ncc2C1 (stereo not drawn)
OUT: < 10 nM

IN: Answer with reported EC50 of Cc1cccc(COc2ccc(-c3ncc4c(n3)CCN(CC(C)CC(=O)O)C4)cc2)c1 (stereo not drawn)
OUT: < 10 nM

IN: Answer with reported EC50 of CC(CC(=O)O)CN1CCc2nc(C3CC(OCc4ccccc4)C3)ncc2C1 (stereo not drawn)
OUT: 1000 to 10000 nM

IN: Answer with reported EC50 of CC(CN1CCc2nc(-c3ccc(OCc4ccc(Cl)cc4)cc3)ncc2C1)C(=O)O (stereo not drawn)
OUT: < 10 nM
